// Phanerochaete chrysosporium MIC records

// solved cases for MIC follow
| Compound | MIC |
| --- | --- |
| CCCCCCCCCCCCCCCCSC1c2c(O)cc(O)cc2OC(c2ccc(O)c(O)c2)C1O (centres unmarked) | 1000 µg/mL |
| CCCCCCSC1c2c(O)cc(O)cc2OC(c2ccc(O)c(O)c2)C1O (centres unmarked) | 250 µg/mL |
| CCCCCCCCCCCCSC1c2c(O)cc(O)cc2OC(c2ccc(O)c(O)c2)C1O (centres unmarked) | 1000 µg/mL |
| CCCCCCCCSC1c2c(O)cc(O)cc2OC(c2ccc(O)c(O)c2)C1O (centres unmarked) | 100 µg/mL |

The value of MIC measured for the compound CCCCCCCCCCSC1c2c(O)cc(O)cc2OC(c2ccc(O)c(O)c2)C1O (centres unmarked) turned out to be 50 µg/mL
